Taken from paper PMC7865145.

- measurement_target: Papain-like protease (nsp3) of SARS-CoV-2 (Severe acute respiratory syndrome coronavirus 2)
- test_description: biochemical
- Format: biochemical
- condition_parameters: 100 uM; FRET-based enzymatic assay, 3 independent experiments; N.I. = no inhibition
endpoint: Inhibition % at 100 uM of compounds, Papain-like protease (nsp3)

CO/N=C1\C[C@]2(C[C@@H]3C[C@@H](C/C=C(\C)C[C@@H](C)/C=C/C=C4\CO[C@@H]5[C@H](O)C(C)=C[C@@H](C(=O)O3)[C@]45O)O2)O[C@H](/C(C)=C/C(C)C)[C@H]1C; N.I.
CC[C@@]1([C@@H]2O[C@@H]([C@H]3O[C@@](O)(CO)[C@H](C)C[C@@H]3C)C[C@@H]2C)CC[C@H]([C@]2(C)CC[C@]3(C[C@H](O)[C@@H](C)[C@@H]([C@@H](C)[C@@H](OC)[C@H](C)C(=O)O)O3)O2)O1; N.I.
OC1(c2ccc(Cl)c(C(F)(F)F)c2)CCN(CCCC(c2ccc(F)cc2)c2ccc(F)cc2)CC1; N.I.
OC(c1cc(C(F)(F)F)nc2c(C(F)(F)F)cccc12)C1CCCCN1 (centres unmarked); N.I.

Okay, next one:
Look up Inhibition % at 100 uM of compounds, Papain-like protease (nsp3) for this molecule: CO[C@@H]1[C@@H](OC)[C@H](C)[C@@](O)(CC(=O)O)O[C@H]1[C@H](C)[C@H]1O[C@@]2(CC[C@@](C)([C@H]3CC[C@@](C)([C@@H]4O[C@@H]([C@H]5O[C@](C)(O)[C@H](C)C[C@@H]5C)C[C@@H]4O[C@@H]4C[C@H](OC)[C@@H](OC)[C@H](C)O4)O3)O2)C[C@H](O)[C@H]1C
N.I.

* * *

- test_description: in vitro
- condition_parameters: African green monkey, CC50 (μM), Vero E6 cells
Recorded CC50, one value per entry.
# output: bare number, implied unit µM

Study these solved cases before continuing.
CC[C@H](C)[C@H]1O[C@]2(CC[C@@H]1C)C[C@@H]1C[C@@H](C/C=C(\C)[C@@H](O[C@H]3C[C@H](OC)[C@@H](O[C@H]4C[C@H](OC)[C@@H](O)[C@H](C)O4)[C@H](C)O3)[C@@H](C)/C=C/C=C3\CO[C@@H]4[C@H](O)C(C)=C[C@@H](C(=O)O1)[C@]34O)O2; 13.2
CC[C@@H](C(=O)[C@@H](C)[C@@H](O)[C@H](C)[C@@H]1O[C@@H]([C@@H](CC)C(=O)O)CC[C@@H]1C)[C@H]1O[C@]2(C=C[C@@H](O)[C@]3(CC[C@@](C)([C@H]4CC[C@](O)(CC)[C@H](C)O4)O3)O2)[C@H](C)C[C@@H]1C; 13.1
CC[C@@]1([C@@H]2O[C@@H]([C@H]3O[C@@](O)(CO)[C@H](C)C[C@@H]3C)C[C@@H]2C)CC[C@H]([C@]2(C)CC[C@]3(C[C@H](O)[C@@H](C)[C@@H]([C@@H](C)[C@@H](OC)[C@H](C)C(=O)O)O3)O2)O1; 6.66

With those in mind, consider the next molecule.
Would you mind telling me what CC50 value was observed for CO[C@@H]1[C@@H](OC)[C@H](C)[C@@](O)(CC(=O)O)O[C@H]1[C@H](C)[C@H]1O[C@@]2(CC[C@@](C)([C@H]3CC[C@@](C)([C@@H]4O[C@@H]([C@H]5O[C@](C)(O)[C@H](C)C[C@@H]5C)C[C@@H]4O[C@@H]4C[C@H](OC)[C@@H](OC)[C@H](C)O4)O3)O2)C[C@H](O)[C@H]1C ?
6.39
